assay remarks: NCI Yeast Anticancer Drug Screen. Data for the sgs1 mgt1 strain (AID 161)
test context: S. cerevisiae sgs1 mgt1 strain, at 50.0 µM
Compounds without any hit were thinned out: in the full panel of roughly 79,000, 15% have a hit. Activity calls are given as the source filed them. Rule as the data show it: active = growth inhibition above about 70%; inactive = the rest. Where a SMILES comes first, the peptide text is derived from it. Bridges are numbered along the chain shown (N, C = ends). Roman numbers before positions name the chains, in order. [ ]: non-standard residue; d: D form. The star is where a group is joined. Quinoxaline2carbonyl = O=C(c1cnc2ccccc2n1)*; NMeV = CN[CH](C(=O)O)C(C)C; NMeC = CN[CH](CS)C(=O)O
Answer with one of the outcomes Yes for active, No for inactive

molecule	assigned class
CNP1(N(C)C)=NP(NC)(N(C)C)=NP(NC)(N(C)C)=N1 (stereo unspecified)	No
CC(=O)OC1CC2(O)C3CCC4CC(O)CCC4(C)C3CCC2(C)C1C1=CC(=O)OC1 (stereo unspecified)	No
CCCC/C=C/C=C/C=C/CCCCCCCC(=O)OCC(COC(=O)CCCCCCC/C=C/C1C=CC(CCCC)C(C(=O)O)C1C(=O)O)OC(=O)CCCCCCC/C=C/C=C/C=C/CCCC (stereo unspecified) (tested in a mixture with another compound)	No

[Q] Can you look up the reported call for [C-]#[O+].[C-]#[O+].[C-]#[O+].[C-]#[O+].[Cr].c1ccc(P(CCP(CCP(c2ccccc2)c2ccccc2)c2ccccc2)CCP(c2ccccc2)c2ccccc2)cc1 (stereo unspecified) for me?
[A] No

[Q] And what about the molecule "COC(=O)CP(=O)(OC)OC" ?
[A] No

[Q] And what about the molecule O=C(O)C1C2c3ccccc3C(c3ccccc32)C1C(=O)NCC1CC1 (stereo unspecified) ?
[A] No

[Q] And what about the molecule COC(=O)c1cncn1C(C)c1cccc2ccccc12 (stereo unspecified) ?
[A] Yes

[Q] And what about the molecule COc1ccc2c(c1O)C13C=C(OS(=O)(=O)c4ccc(C)cc4)C=CC1C(C2)N(C)CC3 (stereo unspecified) ?
[A] No

[Q] And what about the molecule O=[N+]([O-])c1ccc(SN2C3CCCCC32)c([N+](=O)[O-])c1 (stereo unspecified) ?
[A] No

[Q] And what about the molecule COc1ccc2c3c1OC1C(O)C=CC4C(C2)N(N=O)CCC341 (stereo unspecified) ?
[A] No

[Q] And what about the molecule CC1NC(=O)C(NC(=O)c2cnc3ccccc3n2)COC(=O)C(C(C)C)N(C)C(=O)C2CSSCC(C(=O)N(C)C(C(C)C)C(=O)OCC(NC(=O)c3cnc4ccccc4n3)C(=O)NC(C)C(=O)N2C)N(C)C1=O (stereo unspecified) (I: Quinoxaline2carbonyl-SA[NMeC][NMeV] / II: Quinoxaline2carbonyl-SA[NMeC][NMeV]; ester I:1-II:C, I:C-II:1; disulfide I:3-II:3; configuration not given here) ?
[A] Yes

[Q] And what about the molecule C[N+](C)(C)CC1CCC/C1=N/O (stereo unspecified) ?
[A] No

[Q] And what about the molecule "O=S1(=O)OCCOS(=O)(=O)C1(Cl)Cl" ?
[A] No

[Q] And what about the molecule "CC(CCC#N)([N+](=O)[O-])[N+](=O)[O-]" ?
[A] No

[Q] And what about the molecule C[C@]12CC[C@H]3[C@@H](CCC4=C[C@@H](OC5OCC(OC6OC(CO)C(O)C(O)C6O)C(O)C5O)CC[C@@]43C=O)[C@@]1(O)CCC2C1=CC(=O)OC1 (stereo partly specified) ?
[A] No

[Q] And what about the molecule "Nc1ccc(P(=O)(O)O)cc1" ?
[A] No

[Q] And what about the molecule "CCP(c1ccccc1)c1ccccc1" ?
[A] No

[Q] And what about the molecule "CCOP(=O)(OCC)/C(C#N)=C/c1cccs1" ?
[A] No

Source: PubChem BioAssay (NCI)
